Please respond with reported Ki for every item in the list.
Target: Inosine-5'-monophosphate dehydrogenase (Bacillus anthracis, UniProt A0A6L8P2U9)
Sequence (A0A6L8P2U9 whole entry): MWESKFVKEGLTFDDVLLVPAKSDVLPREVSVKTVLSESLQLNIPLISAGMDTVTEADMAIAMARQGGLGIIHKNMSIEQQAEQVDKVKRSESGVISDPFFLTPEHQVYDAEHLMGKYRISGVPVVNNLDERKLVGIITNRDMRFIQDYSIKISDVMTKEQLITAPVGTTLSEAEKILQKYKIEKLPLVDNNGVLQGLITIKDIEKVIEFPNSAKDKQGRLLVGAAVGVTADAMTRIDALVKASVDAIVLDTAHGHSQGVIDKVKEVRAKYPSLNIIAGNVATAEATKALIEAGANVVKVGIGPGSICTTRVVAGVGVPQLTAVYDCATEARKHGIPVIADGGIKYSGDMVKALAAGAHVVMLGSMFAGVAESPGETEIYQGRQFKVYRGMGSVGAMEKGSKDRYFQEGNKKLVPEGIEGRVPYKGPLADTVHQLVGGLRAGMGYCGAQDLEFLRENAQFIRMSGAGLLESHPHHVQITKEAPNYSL
Experiment: Non-competitive inhibition of Bacillus anthracis IMPDH preincubated for 10 mins before IMP substrate addition by spectrophotometry
Answer format reminder: number followed by unit.

Inquiry: Return Ki for the following compound: `C/C(=N\O)c1cccc(C(C)(C)NC(=O)Nc2ccc(Br)cc2)c1`
Reply text: 48 nM

Inquiry: Please supply the value of reported Ki for the item `C/C(=N\O)c1cccc(C(C)(C)NC(=O)Nc2ccc(Cl)c(C(N)=O)c2)c1`
Reply text: 1.5 nM

Inquiry: Determine its reported Ki: `Cn1nc(CC(=O)Nc2ccc3oc4c(c3c2)CCCC4)c2ccccc2c1=O`
Reply text: 12 nM

Inquiry: Please list Ki recorded for the compound `O=C(Cn1c(-c2ccccn2)nc2ccccc21)Nc1ccc2ccccc2c1`
Reply text: 820 nM

Inquiry: Supply reported Ki belonging to this compound: `C[C@@H](Oc1cc[n+]([O-])c2ccccc12)c1cn(-c2ccc(Cl)cc2)nn1`
Reply text: 38 nM

Inquiry: Give me measured Ki, please, for this compound: `C[C@H](Oc1cccc2ccccc12)C(=O)Nc1ccc2oc(-c3ccncc3)nc2c1`
Reply text: 24 nM

----------
Assign pIC50 to each entry below.
Recall that pIC50 is obtained by taking minus log10 of the concentration measured in molar.

Inquiry: Enter recorded pIC50 with Inosine-5'-monophosphate dehydrogenase (Cryptosporidium parvum, UniProt Q8T6T2) for `C/C(=N\O)c1cccc(C(C)(C)NC(=O)Nc2ccc(Br)cc2)c1` here.
Reply text: 8.05

Inquiry: For Inosine-5'-monophosphate dehydrogenase (Cryptosporidium parvum, UniProt Q8T6T2), give the measured pIC50 of the entry `C/C(=N\O)c1cccc(C(C)(C)NC(=O)Nc2ccc(Cl)c(C(=O)N3CCN(C)CC3)c2)c1`
Reply text: 6.48

Inquiry: For Inosine-5'-monophosphate dehydrogenase (Cryptosporidium parvum, UniProt Q8T6T2), give the measured pIC50 of the entry `C/C(=N\O)c1cccc(C(C)(C)NC(=O)Nc2ccc(Cl)c(Cl)c2)c1`
Reply text: 6.72

Inquiry: Retrieve pIC50 on Inosine-5'-monophosphate dehydrogenase (Cryptosporidium parvum, UniProt Q8T6T2); query CC(C)C(Oc1cccc2ccccc12)C(=O)Nc1ccc(Cl)cc1 (stereo not given)
Reply text: 6.15

Inquiry: Fill in: pIC50 on Inosine-5'-monophosphate dehydrogenase (Cryptosporidium parvum, UniProt Q8T6T2), entry CC(Oc1cccc([N+](=O)[O-])c1Cl)C(=O)Nc1ccc2oc(-c3ccncc3)nc2c1 (stereo not given)
Reply text: 7.31

Inquiry: Output reported pIC50 of the compound CC(Oc1ccc(-c2ccccc2)cc1)C(=O)Nc1ccc(Cl)cc1 (stereo not given) on Inosine-5'-monophosphate dehydrogenase (Cryptosporidium parvum, UniProt Q8T6T2).
Reply text: 5.96

----------
Target: Inosine-5'-monophosphate dehydrogenase (Cryptosporidium parvum, UniProt Q8T6T2)
Sequence (Q8T6T2 whole entry): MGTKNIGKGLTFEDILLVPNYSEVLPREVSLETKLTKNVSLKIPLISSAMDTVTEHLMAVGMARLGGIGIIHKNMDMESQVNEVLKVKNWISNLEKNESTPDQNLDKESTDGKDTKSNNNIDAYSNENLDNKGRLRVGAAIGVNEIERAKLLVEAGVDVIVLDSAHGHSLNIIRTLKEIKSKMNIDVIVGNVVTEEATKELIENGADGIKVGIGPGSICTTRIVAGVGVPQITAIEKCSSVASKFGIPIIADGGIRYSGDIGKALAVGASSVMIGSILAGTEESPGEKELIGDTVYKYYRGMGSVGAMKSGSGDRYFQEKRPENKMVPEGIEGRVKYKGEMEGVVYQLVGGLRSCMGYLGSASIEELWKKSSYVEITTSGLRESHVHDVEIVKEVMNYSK
Experiment: Competitive inhibition of Cryptosporidium IMPDH preincubated for 10 mins before NAD+ substrate addition by spectrophotometry
READOUT: pKi
Give only the number. pKi is defined as minus log10 of concentration in molar units.

Inquiry: // fetch pKi given entry `C[C@@H](Oc1cc[n+]([O-])c2ccccc12)c1cn(-c2ccc(Cl)cc2)nn1`
Reply text: 8.30

Inquiry: Let me know recorded pKi for `C[C@H](Oc1cccc2ccccc12)C(=O)Nc1ccc2oc(-c3ccncc3)nc2c1` , thanks.
Reply text: 7.89

----------
System: Staphylococcus aureus
Assay: Antibacterial activity against Staphylococcus aureus ATCC 13709 Smith
Assay type: functional
READOUT: MIC

Inquiry: Please supply the value of reported MIC for the item `C[C@@H](Oc1cc[n+]([O-])c2ccccc12)c1cn(-c2ccc(Cl)cc2)nn1`
Reply text: 2 µM

Inquiry: # return recorded MIC for input `C/C(=N\O)c1cccc(C(C)(C)NC(=O)Nc2ccc(Cl)c(C(=O)N3CCOCC3)c2)c1`
Reply text: 2 µM

Inquiry: Please report MIC for the following compound: `C[C@@H](Oc1cccc2cnccc12)c1cn(-c2ccc(Cl)cc2)nn1`
Reply text: 8 µM

Inquiry: Quick one: give measured MIC for `CCN(CC)C(=O)c1ccc(NC(=O)NC(C)(C)c2cccc(/C(C)=N/O)c2)cc1Cl`
Reply text: 4 µM

----------
Biological target: Inosine-5'-monophosphate dehydrogenase (Cryptosporidium parvum, UniProt Q8T6T2)
Sequence (Q8T6T2 whole entry): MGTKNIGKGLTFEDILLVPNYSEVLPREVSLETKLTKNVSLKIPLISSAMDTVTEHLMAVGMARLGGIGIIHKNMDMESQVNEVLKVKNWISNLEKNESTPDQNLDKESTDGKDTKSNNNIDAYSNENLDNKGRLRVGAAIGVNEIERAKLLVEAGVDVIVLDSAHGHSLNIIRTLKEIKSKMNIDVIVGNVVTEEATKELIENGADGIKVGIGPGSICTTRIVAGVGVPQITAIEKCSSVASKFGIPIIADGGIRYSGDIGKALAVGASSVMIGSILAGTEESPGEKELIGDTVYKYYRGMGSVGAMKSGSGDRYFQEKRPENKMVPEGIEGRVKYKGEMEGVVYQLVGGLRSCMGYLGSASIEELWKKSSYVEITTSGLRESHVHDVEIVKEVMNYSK
Assay: Un-competitive inhibition of Cryptosporidium IMPDH preincubated for 10 mins before IMP substrate addition by spectrophotometry
pKi: −log10 of the molar value.
Criterion: pKi meeting or surpassing 8. Met: satisfied. Not met: not satisfied.

Inquiry: Could you verify whether the entry `C[C@@H](Oc1cc[n+]([O-])c2ccccc12)c1cn(-c2ccc(Cl)cc2)nn1` shows pKi of no less than 8?
Reply text: satisfied

Inquiry: Please tell me: is the compound `Cn1nc(CC(=O)Nc2ccc3oc4c(c3c2)CCCC4)c2ccccc2c1=O` at or over 8 in terms of pKi?
Reply text: satisfied

Inquiry: Dear colleague, could you confirm whether `C[C@H](Oc1cccc2ccccc12)C(=O)Nc1ccc2oc(-c3ccncc3)nc2c1` has pKi at or above 8?
Reply text: not satisfied

Inquiry: Kindly determine if pKi recorded for `C/C(=N\O)c1cccc(C(C)(C)NC(=O)Nc2ccc(Cl)c(C(N)=O)c2)c1` is above or exactly 8.
Reply text: satisfied

----------
Molecular target: Inosine-5'-monophosphate dehydrogenase (Bacillus anthracis, UniProt A0A6L8P2U9)
Experiment: Non-competitive inhibition of Bacillus anthracis IMPDH preincubated for 10 mins before NAD+ substrate addition by spectrophotometry
Kindly supply the reported log10 Ki values for the records listed here.
Values reflect log10 of reported Ki (nM).

Inquiry: # return recorded log10 Ki for input `O=C(Cn1c(-c2ccccn2)nc2ccccc21)Nc1ccc2ccccc2c1`
Reply text: 1.64

Inquiry: Give the reported log10 Ki for this molecule. `C[C@@H](Oc1cc[n+]([O-])c2ccccc12)c1cn(-c2ccc(Cl)cc2)nn1`
Reply text: 1.76

Inquiry: In one line, give reported log10 Ki of the entry `C/C(=N\O)c1cccc(C(C)(C)NC(=O)Nc2ccc(Cl)c(C(N)=O)c2)c1` .
Reply text: 0.90

Inquiry: Given `C/C(=N\O)c1cccc(C(C)(C)NC(=O)Nc2ccc(Br)cc2)c1` , respond with its log10 Ki.
Reply text: 0.36

Inquiry: Provide log10 Ki value for the following molecule: `C[C@H](Oc1cccc2ccccc12)C(=O)Nc1ccc2oc(-c3ccncc3)nc2c1`
Reply text: 1.23

Inquiry: Retrieve log10 Ki measured for `Cn1nc(CC(=O)Nc2ccc3oc4c(c3c2)CCCC4)c2ccccc2c1=O` and print it.
Reply text: 2.70

----------
Record form. Attribute: Ratio. Fill in for each entry.
Tested on: Listeria monocytogenes
Experiment: Ratio of MIC for Listeria monocytogenes 10403S in presence of 0.01 % guanine to MIC for Listeria monocytogenes 10403S
Format: functional
Please reply with the number alone, leaving off any unit.

Inquiry: Using the record for `CCN(CC)C(=O)c1ccc(NC(=O)NC(C)(C)c2cccc(/C(C)=N/O)c2)cc1Cl` , state its measured Ratio.
Reply text: 8

Inquiry: Indicate the recorded Ratio value for this compound: `C/C(=N\O)c1cccc(C(C)(C)NC(=O)Nc2ccc(Cl)c(C(=O)N3CCOCC3)c2)c1`
Reply text: 8

Inquiry: Supply recorded Ratio for `C[C@@H](Oc1cccc2cnccc12)c1cn(-c2ccc(Cl)cc2)nn1` here.
Reply text: 8

Inquiry: Entry `C[C@@H](Oc1cc[n+]([O-])c2ccccc12)c1cn(-c2ccc(Cl)cc2)nn1` needs its Ratio filled in; supply it.
Reply text: 8
